Assay Target: Grb2 SH2 (UniProt P62993)
Sequence (P62993 whole entry, looked up): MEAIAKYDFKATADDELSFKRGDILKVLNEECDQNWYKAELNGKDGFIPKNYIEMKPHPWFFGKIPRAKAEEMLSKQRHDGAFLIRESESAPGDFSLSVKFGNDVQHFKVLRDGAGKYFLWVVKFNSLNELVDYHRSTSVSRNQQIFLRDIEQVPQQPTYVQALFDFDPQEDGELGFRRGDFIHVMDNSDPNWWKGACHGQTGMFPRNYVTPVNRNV
Test Protocol: SH2 binding enrichment of the phosphorylated peptide, bacterial display (enrichment ratio); higher = better substrate or ligand; peptides without Tyr show the background
Decision: SH2 binding enrichment >= 0.8 yields 1, all other cases yield -1.

Study these solved cases before continuing.
input: Textbook exercise: given the entry PPDGEYFTLQI [TP53_Y327_L323P] , state whether its SH2 binding enrichment is greater than or equal to 0.8.
output: -1

input: Do the same for QYNPEYVQQAS [LRRC7_Y1058_H1054Y] please
output: 1

input: Do the same for GRDQPYSGTGD [TYRO3_Y828_A831T] please
output: 1

input: Do the same for TEFIQYMRRKN [MAX_Y73_YF] please
output: -1

Now look at this one.
input: Textbook exercise: given the entry LSQDVYEEDSF [RET_Y900_R897Q_YF] , state whether its SH2 binding enrichment is greater than or equal to 0.8.
output: 1

* * *

Assay Target: SHP2-C SH2
Test Protocol: SH2 binding enrichment of the phosphorylated peptide, bacterial display (enrichment ratio); higher = better substrate or ligand; peptides without Tyr show the background
Listed below: SH2 binding enrichment values for each entry.

input: What SH2 binding enrichment appears in the records for this sequence with SHP2-C SH2? IDGLEYLHSQS [STK11_Y166_G171S]
output: 0.622

input: Do the same for GRRNTCYASIA [ACADM_Y352_Y352C] please
output: 7.14

input: Do the same for QMVGMYASSSM [AVPR2_Y124_Y128S] please
output: 0.756

---
input: What SH2 binding enrichment appears in the records for this sequence with SHP2-C SH2? GDPTEYFSTAI [IGSF22_Y501_YF]
output: 0.583

input: Do the same for KEAQVYQAFKL [SUCLG2_Y343] please
output: 0.616

input: Do the same for LSSEMYVKSYT [F5_Y2149] please
output: 0.609

input: Do the same for MSLPGYKLVTG [GJA1_Y286_P283L] please
output: 0.682

* * *

Assay Target: EPHB1 (UniProt P54762)
Sequence (P54762 whole entry, looked up): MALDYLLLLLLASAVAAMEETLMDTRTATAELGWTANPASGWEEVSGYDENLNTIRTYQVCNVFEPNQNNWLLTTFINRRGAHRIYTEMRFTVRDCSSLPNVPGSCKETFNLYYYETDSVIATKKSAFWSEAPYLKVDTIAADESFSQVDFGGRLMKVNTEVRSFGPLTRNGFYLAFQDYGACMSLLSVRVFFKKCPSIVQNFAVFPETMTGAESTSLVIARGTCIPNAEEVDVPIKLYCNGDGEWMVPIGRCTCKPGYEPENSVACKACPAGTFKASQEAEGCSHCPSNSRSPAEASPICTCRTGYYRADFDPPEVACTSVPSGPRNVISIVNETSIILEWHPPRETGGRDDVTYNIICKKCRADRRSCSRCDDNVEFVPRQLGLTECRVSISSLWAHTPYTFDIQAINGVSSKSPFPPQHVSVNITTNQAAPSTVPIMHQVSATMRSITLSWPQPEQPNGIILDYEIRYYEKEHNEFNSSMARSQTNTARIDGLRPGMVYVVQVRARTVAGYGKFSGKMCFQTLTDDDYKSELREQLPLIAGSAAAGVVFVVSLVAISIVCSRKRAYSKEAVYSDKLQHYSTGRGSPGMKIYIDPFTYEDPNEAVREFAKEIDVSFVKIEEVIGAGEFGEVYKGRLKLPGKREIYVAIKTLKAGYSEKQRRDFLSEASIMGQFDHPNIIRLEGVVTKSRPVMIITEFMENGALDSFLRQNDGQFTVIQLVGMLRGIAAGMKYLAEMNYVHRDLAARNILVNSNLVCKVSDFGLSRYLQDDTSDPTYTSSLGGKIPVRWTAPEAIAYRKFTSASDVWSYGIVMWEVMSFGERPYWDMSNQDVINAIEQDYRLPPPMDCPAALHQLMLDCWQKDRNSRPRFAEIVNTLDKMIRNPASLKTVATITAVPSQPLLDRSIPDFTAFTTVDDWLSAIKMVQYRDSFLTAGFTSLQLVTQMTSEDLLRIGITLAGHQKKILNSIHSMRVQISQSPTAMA
Test Protocol: phosphorylation enrichment, bacterial display (enrichment ratio); higher = better substrate or ligand; peptides without Tyr show the background
Result Type: phosphorylation enrichment
// no unit, no text: just the number

Previously resolved entries follow.
input: Form field: reported phosphorylation enrichment of GVTLLCFGRFN [ADGRD1_Y85_Y85C_YF]
output: 0.732

input: Do the same for SSVKPYRVYCD [FGB_Y266] please
output: 0.449

input: Do the same for LDMSQYFRLFN [CPT2_Y217] please
output: 0.539

input: Do the same for SYCYRYCCAAR [SUMF1_Y344_R345C] please
output: 0.392

input: Do the same for QDGFSYPSRQM [LDLR_Y847_YF] please
output: 0.218

---
input: Form field: reported phosphorylation enrichment of EIVHRYVELLD [AP1S3_Y87]
output: 0.483

* * *

Assay Target: FGFR3 (UniProt P22607)
Sequence (P22607 whole entry, looked up): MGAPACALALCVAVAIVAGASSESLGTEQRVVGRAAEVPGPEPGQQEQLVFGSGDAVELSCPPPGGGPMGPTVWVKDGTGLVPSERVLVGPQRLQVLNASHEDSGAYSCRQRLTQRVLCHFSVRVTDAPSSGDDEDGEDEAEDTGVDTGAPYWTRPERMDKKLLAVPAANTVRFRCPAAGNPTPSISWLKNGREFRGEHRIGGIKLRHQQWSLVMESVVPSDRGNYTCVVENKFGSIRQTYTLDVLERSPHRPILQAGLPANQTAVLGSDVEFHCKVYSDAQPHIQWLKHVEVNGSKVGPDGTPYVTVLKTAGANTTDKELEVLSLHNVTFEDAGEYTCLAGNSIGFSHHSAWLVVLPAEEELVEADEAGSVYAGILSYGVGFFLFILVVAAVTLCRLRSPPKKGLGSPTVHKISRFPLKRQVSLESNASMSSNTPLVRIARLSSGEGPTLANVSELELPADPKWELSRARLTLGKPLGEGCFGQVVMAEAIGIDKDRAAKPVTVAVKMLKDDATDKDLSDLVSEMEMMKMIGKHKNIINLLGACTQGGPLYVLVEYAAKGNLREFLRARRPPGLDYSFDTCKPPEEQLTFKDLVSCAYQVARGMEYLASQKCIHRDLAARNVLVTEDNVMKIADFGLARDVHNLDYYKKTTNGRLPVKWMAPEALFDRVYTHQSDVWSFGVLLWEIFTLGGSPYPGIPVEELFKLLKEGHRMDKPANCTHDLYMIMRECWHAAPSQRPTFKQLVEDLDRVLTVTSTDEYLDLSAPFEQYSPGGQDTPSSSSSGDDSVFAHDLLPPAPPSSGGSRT
Test Protocol: phosphorylation enrichment, bacterial display (enrichment ratio); higher = better substrate or ligand; peptides without Tyr show the background
Result Type: phosphorylation enrichment
// no unit, no text: just the number

input: Form field: reported phosphorylation enrichment of EVEPTYVVLYD [ERCC4_Y577_R576T]
output: 4.01

---
input: Form field: reported phosphorylation enrichment of GRRNTYYASIA [ACADM_Y352]
output: 0.454

input: Do the same for TTKAKYKTPIF [PLD2_Y573_T577I_YF] please
output: 0.572

input: Do the same for QEKKGYFEDRC [GLUL_Y336_R341C] please
output: 0.716

input: Do the same for NSAFFYKTAEE [CCT6B_Y250_G247A] please
output: 0.696

input: Do the same for YSPYDYQPCLA [TNS1_Y798] please
output: 1.84

input: Do the same for GLALRYLSDHS [VWF_Y1584] please
output: 0.583
